Target: SRSF protein kinase 1 (Homo sapiens, UniProt Q96SB4)
Sequence (Q96SB4 whole entry): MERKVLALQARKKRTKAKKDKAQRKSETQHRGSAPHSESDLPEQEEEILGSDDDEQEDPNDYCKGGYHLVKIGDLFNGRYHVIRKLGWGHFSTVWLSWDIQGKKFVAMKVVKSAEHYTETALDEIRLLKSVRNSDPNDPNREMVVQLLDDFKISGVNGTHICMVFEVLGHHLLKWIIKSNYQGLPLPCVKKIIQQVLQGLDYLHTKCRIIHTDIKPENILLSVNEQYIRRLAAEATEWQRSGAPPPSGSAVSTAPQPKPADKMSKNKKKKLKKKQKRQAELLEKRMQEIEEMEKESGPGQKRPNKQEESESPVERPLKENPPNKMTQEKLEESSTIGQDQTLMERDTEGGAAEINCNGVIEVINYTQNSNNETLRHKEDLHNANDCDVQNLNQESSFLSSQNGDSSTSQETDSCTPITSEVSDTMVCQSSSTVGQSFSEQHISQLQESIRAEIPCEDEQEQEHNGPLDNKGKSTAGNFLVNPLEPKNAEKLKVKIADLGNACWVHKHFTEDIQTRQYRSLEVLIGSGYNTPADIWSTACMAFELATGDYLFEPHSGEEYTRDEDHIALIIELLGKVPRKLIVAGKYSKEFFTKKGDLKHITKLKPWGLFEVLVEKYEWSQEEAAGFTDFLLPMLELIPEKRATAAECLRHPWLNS
property_name: IC50

Lab note: measured IC50 of CN(c1ncccc1CNc1ccnc(-c2cc3cc(Cl)ccc3[nH]2)n1)S(C)(=O)=O was > 50 µM
